# test protocol: qHTS for Inhibitors of human tyrosyl-DNA phosphodiesterase 1 (TDP1): qHTS in cells in absence of CPT; also: nearly all actives have a fitted effect of over 55% in size
# experimental setup: DT40 Tdp1-/- hTDP1 cells, no CPT, ATP luminescence, 48 h
Among all 420,000 compounds or so, about 64,000 (15%) were called active. Inconclusive results (about 27%) are left out. Calls follow the shape of the dose curve; as a rule, active = well fitted inhibition curve with a large enough effect; inconclusive = small, poorly fitted or top-dose-only effect; inactive = flat fitted curve, though single readings scatter. Not all results are given here.
Give your call using only these classes: active, inactive

>>> classification("CCCS(=O)(=O)N1CCN=C1SCc1cccc(F)c1")
"inactive"
>>> classification("CCCC[C@@H]1CN=C(N)N1CCc1cc(C(F)(F)F)cc(C(F)(F)F)c1")
"active"
>>> classification("CN(C)c1ccc(/C=C/C(=O)c2ccc(C(C)(C)C)cc2)cc1[N+](=O)[O-]")
"active"
>>> classification("O=C(Cn1cnc2ccccc21)Nc1ccccc1-c1ccccc1")
"active"
>>> classification("CCCCN(C(=O)CSCC(=O)Nc1ccc(OC)cc1)c1c(N)n(CCC)c(=O)[nH]c1=O")
"inactive"
>>> classification("CC(CC(=O)O)C(=O)c1ccc(Cl)c([N+](=O)[O-])c1 (stereo not given)")
"inactive"
>>> classification("COC(=O)C1=C(C)NC(=O)/C1=C/c1ccc(CNS(=O)(=O)c2ccc(C)cc2)o1")
"inactive"
>>> classification("CCOc1ccccc1-c1cc(C(=O)N2CCOCC2)c2ccccc2n1")
"inactive"

// query Recorded test outcome, item `Cc1ccc(NC(=O)CSc2nnc3[nH]c(=O)cc(C)n23)cc1Cl`
// result inactive

// query Recorded test outcome, item `COc1ccc(NC(=O)NNC(=O)COc2cc(C)c(Cl)c(C)c2)c(OC)c1`
// result inactive

// query Recorded test outcome, item O=C(NCC1CCC(C(=O)O)CC1)OCc1ccccc1 (stereo not given)
// result inactive

// query Recorded test outcome, item `COc1cc(OC)c(N(C)C(=O)c2cc3c(=O)oc4ccccc4c3s2)cc1Cl`
// result inactive

// query Recorded test outcome, item `O=C(O)c1ccc2c(=O)n3c(nc2c1)/C(=C/c1ccc(Cl)c([N+](=O)[O-])c1)CC3`
// result inactive

// query Recorded test outcome, item `CN(Cc1c(F)cccc1Cl)C(=O)COC(=O)Cn1cnc2ccccc2c1=O`
// result inactive

// query Recorded test outcome, item `Cc1ccc(/C=C2\SC(=S)N(CCC(=O)Nc3ccc(O)cc3)C2=O)cc1`
// result inactive

====

# test protocol: qHTS for Inhibitors of human tyrosyl-DNA phosphodiesterase 1 (TDP1): qHTS in cells in absence of CPT; also: nearly all actives have a fitted effect of over 55% in size
# experimental setup: DT40 Tdp1-/- hTDP1 cells, no CPT, ATP luminescence, 48 h
The whole screen tested about 420,000 compounds, of which about 64,000 (15%) were called active. Not shown: some 27% with an inconclusive outcome. Calls follow the shape of the dose curve; as a rule, active = well fitted inhibition curve with a large enough effect; inconclusive = small, poorly fitted or top-dose-only effect; inactive = flat fitted curve, though single readings scatter. Only a sample is shown.
Give your call using only these classes: active, inactive

// query Recorded test outcome, item `CCOC(=O)C1CCN(C(=O)COc2cc(C)c(Br)c(C)c2)CC1`
// result inactive

// query Recorded test outcome, item COC(=O)C1=C(C(=O)c2ccc(C)cc2)C(c2ccccc2)n2nnnc2N1 (centres undefined)
// result inactive

// query Recorded test outcome, item `Cc1cc2c(cc1S(=O)(=O)NCc1ccc(Cl)cc1)OCC(=O)N2`
// result inactive

// query Recorded test outcome, item `CC(C)c1ccc(Nc2nnc(SCC(=O)c3nnc(-c4ccccc4)o3)s2)cc1`
// result active

====

# test protocol: qHTS for Inhibitors of human tyrosyl-DNA phosphodiesterase 1 (TDP1): qHTS in cells in absence of CPT; also: nearly all actives have a fitted effect of over 55% in size
# experimental setup: DT40 Tdp1-/- hTDP1 cells, no CPT, ATP luminescence, 48 h
Out of some 420,000 compounds screened, about 64,000 (15%) were called active. Roughly 27% stayed inconclusive and do not appear here. Calls come from the whole dose curve; as a rule, active = well fitted inhibition curve with a large enough effect; inconclusive = small, poorly fitted or top-dose-only effect; inactive = flat fitted curve, though single readings scatter. Not all results are given here.
Give your call using only these classes: T for active, F for inactive

Reference set (2 entries):
>>> classification("O=C(CC1SCCNC1=O)Nc1ccc(Cl)cc1 (stereo not given)")
"F"
>>> classification("Nc1ccc(SCCN2C(=O)c3ccccc3C2=O)cc1")
"F"

We next turn to a different compound, shown below.
// query Recorded test outcome, item `CCOc1ccc(S(=O)(=O)N2CCC(C(=O)NCC(=O)Nc3cccc(Cl)c3C)CC2)cc1`
// result F

====

# test protocol: qHTS for Inhibitors of human tyrosyl-DNA phosphodiesterase 1 (TDP1): qHTS in cells in absence of CPT; also: nearly all actives have a fitted effect of over 55% in size
# experimental setup: DT40 Tdp1-/- hTDP1 cells, no CPT, ATP luminescence, 48 h
The campaign covered roughly 420,000 compounds. About 64,000 (15%) were called active. Another 27% or so got no clear call; they are omitted. Not all results are given here.
quantity: outcome

>>> test_value("Cc1ccc(S(=O)(=O)NCCC(=O)NNC(=O)C2COc3ccccc3O2)cc1 (stereo not drawn)")
"inactive"
>>> test_value("Cn1c2c(c(=O)n(C)c1=O)C1c3ccccc3OCC1C(C)(C)O2 (stereo not drawn)")
"inactive"
>>> test_value("Cc1ccc(-c2ccc(=O)n(CC(=O)NCCCN3CCCCC3)n2)cc1")
"inactive"

====

# test protocol: qHTS for Inhibitors of human tyrosyl-DNA phosphodiesterase 1 (TDP1): qHTS in cells in absence of CPT; also: nearly all actives have a fitted effect of over 55% in size
# experimental setup: DT40 Tdp1-/- hTDP1 cells, no CPT, ATP luminescence, 48 h
# Description: Human tyrosyl-DNA phosphodiesterase 1 (TDP1) is a novel repair gene, and we propose to use it as a new target for anticancer drug development. […] For the primary screen, Tdp1-/-;hTDP1 cells will be exposed to small molecules in the presence or absence of CPT, and their growth kinetics will be evaluated after 48 hours by measuring ATP activity. […] The hit compounds will then be evaluated in the presence or absence of CPT using Tdp1-/- cells. […]
The whole screen tested about 420,000 compounds, of which about 64,000 (15%) were called active. Another 27% or so got no clear call; they are omitted. Calls come from the whole dose curve; as a rule, active = well fitted inhibition curve with a large enough effect; inconclusive = small, poorly fitted or top-dose-only effect; inactive = flat fitted curve, though single readings scatter. The list is a sample of the results.
Give your call using only these classes: YES = active, NO = inactive

>>> classification("CCCCCn1c(=O)[nH]c2cc(C(=O)NCCCN3CCCCC3C)ccc2c1=O (configuration not stated)")
"NO"
>>> classification("COCCn1c(=O)[nH]c2cc(C(=O)NCc3cccnc3)ccc2c1=O")
"NO"
>>> classification("CCC1SC(CC)C(=O)N(CC(=O)NC2CCCCC2)C1=O (configuration not stated)")
"NO"

// query Recorded test outcome, item Cc1cc(C)c(OCC(=O)N(Cc2cccs2)C2CCS(=O)(=O)C2)c(C)c1 (configuration not stated)
// result NO

// query Recorded test outcome, item Cc1ccsc1CN(C(=O)c1oc2ccc(Br)cc2c1C)C1CCS(=O)(=O)C1 (configuration not stated)
// result YES

// query Recorded test outcome, item CC1(C(=O)NS(=O)(=O)Cc2cccc(Cl)c2)CCN1C(=O)Cc1ccccc1 (configuration not stated)
// result NO

// query Recorded test outcome, item `CCCCc1ccc(S(N)(=O)=O)cc1`
// result NO

// query Recorded test outcome, item COc1ccc(CC(N)c2csc(NC(=O)Nc3ccc(C(C)C)cc3)n2)cc1 (configuration not stated)
// result YES

// query Recorded test outcome, item `CC(C)(C)CC(=O)Nc1nnc(SCC(=O)NCc2cccs2)s1`
// result NO

====

# test protocol: qHTS for Inhibitors of human tyrosyl-DNA phosphodiesterase 1 (TDP1): qHTS in cells in absence of CPT; also: nearly all actives have a fitted effect of over 55% in size; also: potency is read from the fitted curve at half-maximal effect
# experimental setup: DT40 Tdp1-/- hTDP1 cells, no CPT, ATP luminescence, 48 h
# Description: Human tyrosyl-DNA phosphodiesterase 1 (TDP1) is a novel repair gene, and we propose to use it as a new target for anticancer drug development. […] For the primary screen, Tdp1-/-;hTDP1 cells will be exposed to small molecules in the presence or absence of CPT, and their growth kinetics will be evaluated after 48 hours by measuring ATP activity. […] The hit compounds will then be evaluated in the presence or absence of CPT using Tdp1-/- cells. […]
Hit rate of the full screen: of about 420,000 compounds, about 64,000 (15%) were called active. Roughly 27% stayed inconclusive and do not appear here. Only a sample is shown.
quantity: Potency

>>> test_value("COc1ccc(C(=O)Nc2ccc(CN3CCOCC3)cc2)cc1")
"inactive"
>>> test_value("NC(=O)c1sc(-c2ccsc2)cc1N")
"inactive"
>>> test_value("CC(=O)c1ccc(NC(=O)C2CCCN2S(=O)(=O)c2cccs2)cc1 (stereo unspecified)")
"inactive"
>>> test_value("CC(=O)Nc1ccc(S(=O)(=O)NNC(=O)CCc2ccccc2)cc1")
"inactive"
>>> test_value("CC1(C)C(=O)Nc2ccccc2N1C(=O)COC(=O)Cn1cnc2ccccc2c1=O")
"inactive"
>>> test_value("O=C(CSCc1ccc([N+](=O)[O-])cc1)NCCSCc1ccccc1")
"inactive"

// query # return recorded Potency for input COC(=O)C1=C(C)Nc2ncnn2C1c1ccco1 (stereo unspecified)
// result inactive

// query # return recorded Potency for input `CCOCCCNC(=O)c1c[nH]c2cc(C)ccc2c1=O`
// result inactive

// query # return recorded Potency for input CCCCC(=O)NC(c1ccc(OC)c(OC)c1)c1ccc2cccnc2c1O (stereo unspecified)
// result 3.26 µM (active)

// provenance: PubChem BioAssay AID686978
